system: NCI-H322M lung; assay: NCI-60 one-dose screen, 48 h (100 = growth as untreated, 0 = no growth, -100 = all killed); conditions: 10 µM unless noted
About 83,000 compounds went through this panel and 20% of them were active in at least one assay; those are over-represented in the sample as a whole.
READOUT TYPE: growth (%)
One number for each entry, in %.

Batch request: growth per item, same order as input.
1. CN1CCN(c2nc(C3=C(c4c[nH]c5ccccc45)C(=O)NC3=O)c3ccccc3n2)CC1
2. CCc1ccc(/C=C/c2ccc(O)c3ncccc23)[n+](C)c1
3. CC(=O)OCCC/C(=C\c1ccc2ccccc2c1)[N+](=O)[O-]
4. O=C(CNc1nnc(-c2ccc(Cl)cc2)o1)Nc1ccc(-c2nc3ccccc3s2)cc1
5. COc1ccc(-n2c(=O)c3ccccc3n(Cc3ccc(C(=O)NO)cc3)c2=O)cc1
6. COc1cc2c(Oc3ccc4[nH]c(C)cc4c3F)ncnc2cc1OCCCN1CCCC1
7. CS(=O)(=O)N1CCN(Cc2cc3nc(-c4cccc5[nH]ncc45)nc(N4CCOCC4)c3s2)CC1

1. 29.2
2. 48.7
3. 83.2
4. 95.1
5. 38.4
6. 93
7. -6.73

Batch request: growth per item, same order as input.
1. COc1ccc(C2OC(c3cc(-c4cc5ccccc5o4)nn3-c3ccccc3)=NN2C(C)=O)cc1 (centres undefined)
2. C[C@@H](Oc1cc(-n2cnc3ccc(CN4CCN(C)CC4)cc32)sc1C(N)=O)c1ccccc1C(F)(F)F

1: 97.9; 2: 63.8

Batch request: growth per item, same order as input.
1. Cc1cc(C(O)CN(C)C)cc2c1ccc1cc(C(C)C)ccc12 (centres undefined)
2. Cc1ccc(F)c(NC(=O)Nc2ccc(-c3cccc4[nH]nc(N)c34)cc2)c1
3. COC(=O)[C@]12CC[C@@H](C)[C@H](C)[C@@H]1C1=CC[C@@H]3[C@@]4(C)C(C=O)=C[C@@](C)(COS(C)(=O)=O)C4=CC[C@@]3(C)[C@]1(C)CC2

1. -10.1
2. 21.5
3. 12.2

Batch request: growth per item, same order as input.
1. CC(C)=CCc1cc2c(cc1O)C1=C(C(=O)C3=C(C1=O)S(=O)(=O)CCN3)C(C=C(C)C)O2 (centres undefined)
2. CC1(O)CC(c2nc(-c3ccc4ccc(-c5ccccc5)nc4c3)c3c(N)nccn23)C1 (centres undefined)

-76.2
0.394

====

tested on: MOLT-4 leukemia; experiment: NCI-60 one-dose screen, 48 h (100 = growth as untreated, 0 = no growth, -100 = all killed); details: 10 µM unless noted
About 83,000 compounds went through this panel and 20% of them were active in at least one assay; those are over-represented in the sample as a whole. Active and inactive are the calls of the source. Rule for the calls: active = growth percent below 10; inactive = the rest.
READOUT TYPE: growth

Take a look at these entries with their results.
COMPOUND: Cn1ncc(Cl)c1-c1cc(C(=O)N[C@H](CN)Cc2ccc(F)c(F)c2)oc1Cl
growth: -4.62% (active)

COMPOUND: CC(=O)CC1CCCC1c1ccc2ccccc2c1 (stereo not drawn)
growth: 99.2% (inactive)

Value of measured growth for the entry N#Cc1c(-c2ccc(C(F)(F)F)cc2)cc(NCC2CCS(=O)(=O)CC2)n2c1nc1ccccc12 : 74.3% (inactive)

====

tested on: COLO 205 colon; assay: NCI-60 one-dose screen, 48 h (100 = growth as untreated, 0 = no growth, -100 = all killed); conditions: 10 µM unless noted
Compounds without any hit were thinned out: in the full panel of roughly 83,000, 20% have a hit.
Assignment: determine reported growth for the given compounds.
Give bare numbers, in %.

Take a look at these entries with their results.
COMPOUND: CS(=O)(=O)CCNCc1ccc(-c2ccc3ncnc(Nc4ccc(OCc5cccc(F)c5)c(Cl)c4)c3c2)o1
MEASUREMENT UNIT: %
growth: -27.2

COMPOUND: CCCCCC(=O)OCc1ccc(Cl)c(Cl)c1
MEASUREMENT UNIT: %
growth: 106

COMPOUND: Cc1ccc(NC(=O)c2ccc(CN3CC[C@H](N(C)C)C3)c(C(F)(F)F)c2)cc1Nc1nccc(-c2cncnc2)n1
MEASUREMENT UNIT: %
growth: -55.5

COMPOUND: Nc1nc(N)c2cc(CNc3ccc(C(=O)NC(CC(=O)O)C(=O)O)cc3)ccc2n1 (stereo not drawn)
MEASUREMENT UNIT: %
growth: 51.9

COMPOUND: Cc1cc(Oc2ccccc2)ccc1Nc1ncnc2ccc(-c3cnc(Cl)c(NS(C)(=O)=O)c3)cc12
MEASUREMENT UNIT: %
growth: 12.1

Batch request: growth per item, same order as input.
1. c1cc(OCCN2CCCCC2)cc(-c2n[nH]c3ccc(-c4ncn[nH]4)cc23)c1
2. Clc1ccc(C(Cn2ccnc2)OCc2ccsc2Cl)c(Cl)c1 (stereo not drawn)
3. Cc1nc(N)sc1-c1ccnc(Nc2ccc(N3CCOCC3)cc2)n1

[6.03, 62.9, 1.1]

Batch request: growth per item, same order as input.
1. C=CCn1c(=O)c2cnc(Nc3ccc(N4CCN(C)CC4)cc3)nc2n1-c1cccc(C(C)(C)O)n1
2. CC(C)(C)CC(C)(C)Nc1c(-c2c(O)c3ccccc3oc2=O)nc2c(Cl)cc(C(F)(F)F)cn12
3. C=C1[C@@H](O)C[C@H]2C(C)(C)C[C@H](Cl)C[C@]2(C)[C@H]1C[C@H](O)[C@H]1CC(=O)NC1=O
4. C[C@@H](N)c1ccc(C(=O)Nc2ccnc3[nH]ccc23)cc1
5. CCc1cc2c(c3ccc(C(=O)CBr)cc13)CCCC2
6. O=c1[nH]c(N2CCOCC2)nc2scc(-c3ccccc3)c12

1. -29.5
2. 112
3. -62.5
4. 5.34
5. 102
6. 101

Batch request: growth per item, same order as input.
1. COc1cc2ncnc(Oc3cccc(NC(=O)Nc4cc(C(C)(C)C(F)(F)F)on4)c3)c2cc1OC
2. CN1CCN(c2nc(NCCNc3ccnc4cc(Cl)ccc34)c3ccccc3n2)CC1
3. COc1cc2c(cc1O)c(=O)n(CCN(C)C)c1c3cc4c(cc3ncc21)OCO4
4. Cc1ccccc1N1C(c2ccccc2)=NNC12C=CC(=O)C=C2Cl (stereo not drawn)
5. Cc1cn(-c2cc(NC(=O)c3ccc(C)c(Nc4nccc(-c5cccnc5)n4)c3)cc(C(F)(F)F)c2)cn1
6. N#CC[C@H](C1CCCC1)n1cc(-c2ncnc3[nH]ccc23)cn1
7. Clc1ccc2c(NCCNc3nc(N4CCCC4)nc4ccccc34)ccnc2c1
8. O=C(Cc1ccc(/C=C/C(=O)c2ncc[nH]2)cc1)Nc1ccc(Br)cc1

1. 1.14
2. -62.6
3. 45.9
4. 99.3
5. 19.8
6. 37
7. -81.4
8. 20.7

====

test system: LOX IMVI melanoma; experiment: NCI-60 one-dose screen, 48 h; conditions: 10 µM unless noted
About 83,000 compounds went through this panel and 20% of them were active in at least one assay; those are over-represented in the sample as a whole. Active and inactive are the calls of the source. How the source made its calls: active means growth percent below 10; inactive means the rest.
Allowed answers: active, inactive

Worked cases, answers included:
COMPOUND: C[C@@H](N)c1ccc(C(=O)Nc2ccnc3[nH]ccc23)cc1
TEST TARGET: LOX IMVI melanoma
LABEL: inactive

COMPOUND: COc1cnc2c(c1)C(=O)c1c-2n(CCCN2CCC(O)CC2)c(=O)c2cc(Cl)ccc12
TEST TARGET: LOX IMVI melanoma
LABEL: active

COMPOUND: C=CC(=O)Nc1cc2c(Nc3ccc(F)c(Cl)c3)ncnc2cc1C#CC(C)(C)N1CCN(C)CC1
TEST TARGET: LOX IMVI melanoma
LABEL: active

COMPOUND: Cc1cc(N2CCCC2)nc(N(CCCNc2ccnc3cc(Cl)ccc23)Cc2ccc3c(c2)OCO3)n1
TEST TARGET: LOX IMVI melanoma
LABEL: active

COMPOUND: O=c1sn(-c2cccc3ccccc23)c(=O)n1Cc1ccccc1
TEST TARGET: LOX IMVI melanoma
LABEL: inactive

COMPOUND: CC(=Nc1ccccc1)C1=C(O)C(Cc2ccc(O)cc2)NC1=O (stereo not given)
TEST TARGET: LOX IMVI melanoma
LABEL: inactive

COMPOUND: Clc1ccc2c(NCCNc3nc(N4CCCC4)nc4ccccc34)ccnc2c1
TEST TARGET: LOX IMVI melanoma
LABEL: active

COMPOUND: Nc1c(Cl)cccc1[N+](=O)[O-]
TEST TARGET: LOX IMVI melanoma
LABEL: inactive

COMPOUND: S=C(NCc1ccc2c(c1)OCO2)N1CCN(c2ncnc3c2oc2ccccc23)CC1
TEST TARGET: LOX IMVI melanoma
LABEL: inactive

COMPOUND: CC1(C)NC(=O)c2[nH]c3c(Cl)c(Cl)ccc3c2C1C#N (stereo not given)
TEST TARGET: LOX IMVI melanoma
LABEL: inactive

Answer briefly: the call reported for CN1C/C=C\CCOc2cccc(c2)-c2ccnc(n2)Nc2cccc(c2)C1 in this assay. active

Answer briefly: the call reported for COCC(=O)NC/C=C/c1ccc2ncnc(Nc3ccc(Oc4ccc(C)nc4)c(C)c3)c2c1 in this assay. inactive

Answer briefly: the call reported for C[C@H](NC(=O)c1c(N)nn2cccnc12)c1cc2cccc(C#Cc3cnn(C)c3)c2c(=O)n1-c1ccccc1 in this assay. active

Answer briefly: the call reported for CCCCCCCC(=O)SCC/C=C/[C@@H]1CC(=O)NCc2cc(ccn2)C2=N[C@@](C)(CS2)C(=O)N[C@@H](C(C)C)C(=O)O1 in this assay. active

Answer briefly: the call reported for CCCCCCCCCNCCCCCCCCC in this assay. inactive

These entries and their values trace back to PubChem BioAssay (NCI).
